Biological target: IgG receptor FcRn large subunit p51 (Homo sapiens, UniProt P55899)
Sequence (P55899 whole entry): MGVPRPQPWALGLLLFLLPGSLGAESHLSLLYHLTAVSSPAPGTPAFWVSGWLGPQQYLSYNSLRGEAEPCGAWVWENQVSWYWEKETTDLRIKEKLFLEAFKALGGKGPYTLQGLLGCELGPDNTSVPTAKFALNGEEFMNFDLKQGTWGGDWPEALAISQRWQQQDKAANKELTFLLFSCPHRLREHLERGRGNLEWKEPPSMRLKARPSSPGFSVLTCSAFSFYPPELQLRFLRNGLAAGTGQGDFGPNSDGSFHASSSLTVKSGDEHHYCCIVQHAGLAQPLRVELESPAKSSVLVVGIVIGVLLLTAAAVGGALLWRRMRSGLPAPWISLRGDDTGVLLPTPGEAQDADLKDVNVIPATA
Assay: Inhibition of human IgG binding to soluble human FcRn by ELISA
Peptide text beside a SMILES is read from it.
parameter.measured: IC50 (µM)
Dear colleague, please return just the value in µM, with no unit written.

INPUT: Need IC50 of `CC(C)C[C@H](NC(=O)CNC(=O)C(C)(C)NC(=O)[C@H](Cc1ccccc1)NC(=O)[C@H](Cc1cnc[nH]1)NC(=O)CNC(=O)[C@@H](NC(=O)[C@@H](NC(=O)[C@H](Cc1ccccc1)NC(=O)[C@H](CCCNC(=N)N)NC(=O)[C@@H](N)CCC(N)=O)C(C)(C)S)[C@@H](C)O)C(=O)N[C@@H](Cc1ccc(O)cc1)C(=O)N1CCC[C@H]1C(=O)N[C@@H](CS)C(=O)N[C@@H](CC(N)=O)C(=O)NCC(=O)N1CCC[C@H]1C(=O)O` , thanks.
OUTPUT: 17

INPUT: # lookup: IC50 of CC(C)C[C@H](NC(=O)CNC(=O)CNC(=O)[C@H](Cc1ccccc1)NC(=O)[C@H](Cc1cnc[nH]1)NC(=O)CNC(=O)[C@@H](NC(=O)[C@@H](N)CS)[C@@H](C)O)C(=O)N[C@@H](Cc1ccc(O)cc1)C(=O)N1CCC[C@H]1C(=O)N[C@@H](CS)C(=O)O (H-CTGHFGGLYPC-OH)
OUTPUT: 110

INPUT: Look up IC50: `CC(C)C[C@H](NC(=O)CNC(=O)CNC(=O)[C@H](Cc1ccccc1)NC(=O)[C@H](Cc1cnc[nH]1)NC(=O)CNC(=O)[C@@H](NC(=O)[C@H](CCC(=O)O)NC(=O)[C@H](Cc1ccccc1)NC(=O)[C@H](CCCNC(=N)N)NC(=O)[C@@H](N)CCC(N)=O)[C@@H](C)O)C(=O)N[C@@H](Cc1ccc(O)cc1)C(=O)N1CCC[C@H]1C(=O)N[C@@H](CN)C(=O)N[C@@H](CC(N)=O)C(=O)NCC(=O)N1CCC[C@H]1C(=O)O`
OUTPUT: 71

INPUT: Which IC50 is listed for `CC(C)C[C@H](NC(=O)c1cccc(CNC(=O)[C@H](Cc2ccccc2)NC(=O)[C@H](Cc2cnc[nH]2)NC(=O)CNC(=O)[C@@H](NC(=O)[C@@H](NC(=O)[C@H](Cc2ccccc2)NC(=O)[C@@H](N)CCCN=C(N)N)C(C)(C)S)[C@@H](C)O)c1)C(=O)N[C@@H](Cc1ccc(O)cc1)C(=O)N1CCC[C@H]1C(=O)N[C@@H](CS)C(=O)O` ?
OUTPUT: 57

====

Molecular target: IgG receptor FcRn large subunit p51 (Homo sapiens)
Assay: Inhibition of human IgG binding to soluble human FcRn by ELISA
Square brackets hold non-standard residues; d marks the D form. Peptide text beside a SMILES is read from it. NMeA = CN[C@@H](C)C(=O)O; Dap = NC[C@H](N)C(=O)O
Mark true (1) for IC50 under 30 µM, false (0) if at or over.

INPUT: Please let me know if `CC(C)C[C@H](NC(=O)CNC(=O)CNC(=O)[C@H](Cc1ccccc1)NC(=O)[C@H](Cc1cnc[nH]1)NC(=O)CNC(=O)[C@@H](NC(=O)[C@H](CCC(=O)O)NC(=O)[C@H](Cc1ccccc1)NC(=O)[C@H](CCCNC(=N)N)NC(=O)[C@@H](N)CCC(N)=O)[C@@H](C)O)C(=O)N[C@@H](Cc1ccc(O)cc1)C(=O)N1CCC[C@H]1C(=O)N[C@@H](CCN)C(=O)N[C@@H](CC(N)=O)C(=O)NCC(=O)N1CCC[C@H]1C(=O)O` shows IC50 below 30 µM.
OUTPUT: false (0)

INPUT: Field: below-cutoff. Rule: recorded IC50 strictly less than 30 µM. Subject: CC(C)C[C@H](NC(=O)CNC(=O)CNC(=O)[C@H](Cc1ccccc1)NC(=O)[C@H](Cc1cnc[nH]1)NC(=O)CNC(=O)[C@H](C)N(C)C(=O)[C@H](CS)NC(=O)[C@H](Cc1ccccc1)NC(=O)[C@H](CCCNC(=N)N)NC(=O)[C@@H](N)CCC(N)=O)C(=O)N[C@@H](Cc1ccc(O)cc1)C(=O)N1CCC[C@H]1C(=O)N[C@@H](CS)C(=O)N[C@@H](CC(N)=O)C(=O)NCC(=O)N1CCC[C@H]1C(=O)O (H-QRFC[NMeA]GHFGGLYPCNGP-OH)
OUTPUT: false (0)

INPUT: I'd appreciate it if you could check whether CC(C)C[C@H](NC(=O)CNC(=O)CNC(=O)[C@H](Cc1ccccc1)NC(=O)[C@H](Cc1cnc[nH]1)NC(=O)CNC(=O)[C@@H](NC(=O)[C@H](CN)NC(=O)[C@H](Cc1ccccc1)NC(=O)[C@H](CCCN=C(N)N)NC(=O)[C@@H](N)CCC(N)=O)[C@@H](C)O)C(=O)N[C@@H](Cc1ccc(O)cc1)C(=O)N1CCC[C@H]1C(=O)N[C@@H](CCC(=O)O)C(=O)N[C@@H](CC(N)=O)C(=O)NCC(=O)N1CCC[C@H]1C(=O)O (H-QRF[Dap]TGHFGGLYPENGP-OH) has IC50 smaller than 30 µM.
OUTPUT: false (0)

INPUT: Confirm or reject: IC50 of `CC(C)C[C@H](NC(=O)CN1CCC[C@@H](NC(=O)[C@H](Cc2ccccc2)NC(=O)[C@H](Cc2cnc[nH]2)NC(=O)CNC(=O)[C@@H](NC(=O)[C@@H](NC(=O)[C@H](Cc2ccccc2)NC(=O)[C@@H](N)CCCNC(=N)N)C(C)(C)S)[C@@H](C)O)C1=O)C(=O)N[C@@H](Cc1ccc(O)cc1)C(=O)N1CCC[C@H]1C(=O)N[C@@H](CS)C(=O)O` lies strictly below 30 µM
OUTPUT: true (1)

INPUT: Please let me know if `CC(C)C[C@@H](C(=O)N[C@@H](Cc1ccc(O)cc1)C(=O)N1CCC[C@H]1C(=O)N[C@@H](CS)C(=O)O)N(C)C(=O)CNC(=O)[C@@H](C)NC(=O)[C@H](Cc1ccccc1)NC(=O)[C@H](Cc1cnc[nH]1)NC(=O)CNC(=O)[C@@H](C)N(C)C(=O)[C@@H](NC(=O)[C@H](Cc1ccccc1)NC(=O)[C@@H](N)CCCNC(=N)N)C(C)(C)S` shows IC50 below 30 µM.
OUTPUT: true (1)

INPUT: Decide: IC50 of `CC(C)C[C@H](NC(=O)CN(C)C(=O)CNC(=O)[C@H](Cc1ccccc1)NC(=O)[C@H](Cc1cnc[nH]1)NC(=O)CNC(=O)[C@@H](NC(=O)[C@@H](NC(=O)[C@H](Cc1ccccc1)NC(=O)[C@@H](N)CCCNC(=N)N)C(C)(C)S)[C@@H](C)O)C(=O)N[C@@H](Cc1ccc(O)cc1)C(=O)N1CCC[C@H]1C(=O)N[C@@H](CS)C(=O)O` strictly below 30 µM?
OUTPUT: true (1)

INPUT: Could you please tell me whether IC50 recorded for `CC(C)C[C@H](NC(=O)[C@@H]1CCCN1C(=O)[C@H]1CCCN1C(=O)[C@H](Cc1ccccc1)NC(=O)[C@H](Cc1cnc[nH]1)NC(=O)CNC(=O)[C@@H](NC(=O)[C@@H](NC(=O)[C@H](Cc1ccccc1)NC(=O)[C@H](CCCN=C(N)N)NC(=O)[C@@H](N)CCC(N)=O)C(C)(C)S)[C@@H](C)O)C(=O)N[C@@H](Cc1ccc(O)cc1)C(=O)N1CCC[C@H]1C(=O)N[C@@H](CS)C(=O)N[C@@H](CC(N)=O)C(=O)NCC(=O)N1CCC[C@H]1C(=O)O` is less than 30 µM?
OUTPUT: false (0)

INPUT: In plain terms, does `CC(C)C[C@H](NC(=O)CNC(=O)CNC(=O)[C@H](Cc1c[nH]c2ccccc12)NC(=O)[C@H](Cc1cnc[nH]1)NC(=O)CNC(=O)[C@@H](NC(=O)[C@@H](NC(=O)[C@H](Cc1ccccc1)NC(=O)[C@H](CCCN=C(N)N)NC(=O)[C@@H](N)CCC(N)=O)C(C)(C)S)[C@@H](C)O)C(=O)N[C@@H](Cc1ccc(O)cc1)C(=O)N1CCC[C@H]1C(=O)N[C@@H](CS)C(=O)N[C@@H](CC(N)=O)C(=O)NCC(=O)N1CCC[C@H]1C(=O)O` come in under 30 µM for IC50?
OUTPUT: true (1)
